molecular target: P70S6K (T412E mutant) (Homo sapiens (Human), UniProt P23443, T412E); experiment: P70S6K enzyme assay; format: biochemical; settings: read-out: IC50 p70S6K
Sequence (P23443 whole entry T412E): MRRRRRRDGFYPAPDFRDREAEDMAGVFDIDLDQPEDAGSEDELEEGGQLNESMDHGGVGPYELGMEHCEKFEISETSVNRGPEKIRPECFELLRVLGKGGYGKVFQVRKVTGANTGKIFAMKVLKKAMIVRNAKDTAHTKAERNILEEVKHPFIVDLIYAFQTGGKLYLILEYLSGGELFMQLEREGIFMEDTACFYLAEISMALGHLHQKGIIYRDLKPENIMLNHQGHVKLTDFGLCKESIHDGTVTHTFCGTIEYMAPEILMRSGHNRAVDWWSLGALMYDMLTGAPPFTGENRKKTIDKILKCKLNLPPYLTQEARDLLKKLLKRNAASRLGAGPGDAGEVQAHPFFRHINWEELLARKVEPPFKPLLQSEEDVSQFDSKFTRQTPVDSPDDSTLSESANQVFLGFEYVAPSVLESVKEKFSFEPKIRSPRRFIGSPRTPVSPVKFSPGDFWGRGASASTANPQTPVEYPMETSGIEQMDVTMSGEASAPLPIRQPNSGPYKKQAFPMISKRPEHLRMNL
Recorded IC50 for the following compounds
The reply should read as a number followed by its unit.

Some solved cases for reference:
CC(C)Oc1c(N)ncnc1N1CCC(c2nc(-c3ccnc(C(F)(F)F)c3)cn2CCN2CCC2)CC1	4.9 nM
Nc1ncnc(N2CCC(c3nc(-c4ccc(F)c(F)c4)cn3CCN3CCCC3)CC2)c1Cl	0.9 nM
COC(=O)c1ccc(-c2c(N)ncnc2N2CCC(c3nc(-c4ccc(F)c(C(F)(F)F)c4)cn3CCN3CCC3)CC2)cc1	11 nM
Nc1ncnc(N2CCC(c3nc(-c4ccc(F)cc4)cn3CCN3CCCC3)CC2)c1Br	1.4 nM
CN(C)c1ncc(-c2c(N)ncnc2N2CCC(c3nc(-c4ccc(F)c(C(F)(F)F)c4)cn3C)CC2)cn1	7.5 nM

Briefly, IC50 measured for Cc1ccc(-c2cn(CCN3CCC3)c(C3CCN(c4ncnc(N)c4C#N)CC3)n2)cc1Cl : 1.3 nM

Record summary for Nc1ncnc(N2CCC(c3nc(-c4ccc(F)c(F)c4)cn3CCN3CCCC3)CC2)c1C1CCC1 : reported IC50 = 6.9 nM

====

target: His-AKT (Full Length) (Homo sapiens (Human), UniProt P31749); test: AKT enzyme assay; assay type: biochemical; details: read-out: IC50 AKT
Sequence (P31749 whole entry): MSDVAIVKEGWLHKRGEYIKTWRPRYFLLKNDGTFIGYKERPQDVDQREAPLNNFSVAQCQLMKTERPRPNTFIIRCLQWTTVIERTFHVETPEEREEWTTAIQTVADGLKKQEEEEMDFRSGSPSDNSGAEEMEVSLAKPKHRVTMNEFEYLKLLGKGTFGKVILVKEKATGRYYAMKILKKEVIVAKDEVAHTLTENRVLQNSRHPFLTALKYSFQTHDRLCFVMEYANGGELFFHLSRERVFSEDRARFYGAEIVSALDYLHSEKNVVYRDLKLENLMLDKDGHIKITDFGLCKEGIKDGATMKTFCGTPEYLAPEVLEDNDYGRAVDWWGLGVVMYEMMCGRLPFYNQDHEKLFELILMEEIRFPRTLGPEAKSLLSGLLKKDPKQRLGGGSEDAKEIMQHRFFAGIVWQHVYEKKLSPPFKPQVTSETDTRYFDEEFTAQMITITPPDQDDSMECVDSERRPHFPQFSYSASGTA
Reported IC50 values for the following compounds.

Cc1cc(-c2cn(CCN3CCCC3)c(C3CCN(c4ncnc(N)c4C(N)=O)CC3)n2)ccc1F	10 nM
Nc1ncnc(N2CCC(c3nc(-c4ccc(F)c(F)c4)cn3CCN3CCCC3)CC2)c1C1CCC1	9.4 nM

What the record says about CC(C)c1cc(-c2cn(CCN3CCC3)c(C3CCN(c4ncnc(N)c4C#N)CC3)n2)ccn1 : IC50 is 11 nM

====

molecular target: P70S6K (T412E mutant) (Homo sapiens (Human), UniProt P23443, T412E); assay: P70S6K enzyme assay; format: biochemical; settings: read-out: IC50 p70S6K
pIC50: −log10 of the molar value.
Param threshold (8) applies to pIC50; output satisfied when value >= threshold, not satisfied when value < threshold.

Some entries whose results are on file:
CC(C)CNCCn1cc(-c2ccc(F)c(C(F)(F)F)c2)nc1C1CCN(c2ncnc(N)c2C#N)CC1	satisfied
Nc1ncnc(N2CCC(c3nc(-c4ccc(F)c(C(F)(F)F)c4)c[nH]3)CC2)c1Br	satisfied

Reported pIC50 reaches at least 8 for Cc1ccc(-c2cn(CCN3CCC3)c(C3CCN(c4ncnc(N)c4C#N)CC3)n2)cc1F ?
satisfied

Assess whether reported pIC50 for CNCCn1cc(-c2ccc(F)c(C)c2)nc1C1CCN(c2ncnc(N)c2C(N)=O)CC1 sits at 8 or higher.
satisfied

Kindly determine if pIC50 recorded for CN(C)CCn1cc(-c2ccc(F)c(C(F)(F)F)c2)nc1C1CCN(c2ncnc(N)c2C2CC2)CC1 is above or exactly 8.
satisfied

API: above_or_equal(metric=pIC50, cutoff=8) for item Nc1ncnc(N2CCC(c3nc(-c4ccc(F)cc4)cn3CCN3CCCC3)CC2)c1Cl
satisfied

Given the entry Nc1cc(N2CCC(c3nc(-c4ccc(F)c(C(F)(F)F)c4)cn3CCN3CCC3)CC2)ncn1 , answer whether its pIC50 meets or surpasses 8.
not satisfied

API: above_or_equal(metric=pIC50, cutoff=8) for item CC(C)Oc1c(N)ncnc1N1CCC(c2nc(-c3ccc(F)c(C(F)(F)F)c3)cn2CCN2CCC2)CC1
satisfied

Check if pIC50 >= 8 (inclusive). Item: CCc1c(N)ncnc1N1CCC(c2nc(-c3ccc(F)cc3)cn2CCN2CCC23COC3)CC1
not satisfied

Textbook exercise: given the entry CCc1c(N)ncnc1N1CCC(c2nc(-c3ccnc(OC)c3)cn2CCN2CCC2)CC1 , state whether its pIC50 is greater than or equal to 8.
not satisfied

====

target: P70S6K (T412E mutant) (Homo sapiens (Human), UniProt P23443, T412E); assay: P70S6K enzyme assay; type: biochemical; details: read-out: IC50 p70S6K
Flag rule - IC50 less than 6 nM flags yes; the remaining entries get no.

Nc1ncnc(N2CCC(c3nc(-c4cccc(F)c4)cn3CCN3CCCC3)CC2)c1Cl	yes
NC(=O)c1c(N)ncnc1N1CCC(c2nc(-c3ccc(F)c(F)c3)cn2CCN2CCC2)CC1	no
COc1cncc(-c2c(N)ncnc2N2CCC(c3nc(-c4ccc(F)c(C(F)(F)F)c4)cn3C)CC2)c1	yes
Cc1cc(-c2cn(CC3CNC3)c(C3CCN(c4ncnc(N)c4OCC(F)(F)F)CC3)n2)ccc1F	yes
Cc1cc(-c2cn(CCNCC3CC3)c(C3CCN(c4ncnc(N)c4C#N)CC3)n2)ccc1F	yes
Nc1ncnc(N2CCC(c3nc(-c4ccc(F)c(C(F)(F)F)c4)cn3CCN3CCC3)CC2)c1-c1cn[nH]c1	yes
N#Cc1c(N)ncnc1N1CCC(c2nc(-c3ccc(F)c(C(F)(F)F)c3)cn2CC2CNC2)CC1	no
NC(=O)c1c(N)ncnc1N1CCC(c2nc(-c3ccc(F)c(Cl)c3)cn2CCN2CCCC2)CC1	yes
CCOc1c(N)ncnc1N1CCC(c2nc(-c3ccc(F)c(C(F)(F)F)c3)cn2CC2CNC2)CC1	yes
Cc1cc(-c2cn(CCN3CCC3)c(C3CCN(c4ncnc(N)c4OC(C)C)CC3)n2)ccc1F	yes

IC50 strictly < 6 nM for this molecule? Cc1cc(-c2cn(CC3CN(CO)C3)c(C3CCN(c4ncnc(N)c4C(C)C)CC3)n2)ccc1F
yes

I'd appreciate it if you could check whether COc1ccc(-c2cncnc2N2CCC(c3nc(-c4cccc(C(F)(F)F)c4)c[nH]3)CC2)cc1 has IC50 smaller than 6 nM.
no

Does the reported IC50 of the following molecule sit strictly below 6 nM? CN(C)CCn1cc(-c2ccc(F)c(C(F)(F)F)c2)nc1C1CCN(c2ncnc(N)c2-c2cnc(N)nc2)CC1
yes

====

biological target: P70S6K (T412E mutant) (Homo sapiens (Human), UniProt P23443, T412E); experiment: P70S6K enzyme assay; assay type: biochemical; conditions: read-out: IC50 p70S6K
attribute-measured: IC50 (nM)
Kindly answer with a numeric value in nM, unit omitted.

CCc1c(N)ncnc1N1CCC(c2nc(-c3ccc(F)cc3)cn2CCN2CCOCC2)CC1	16
Cc1cc(-c2cn(CCNC3CC3)c(C3CCN(c4ncnc(N)c4-c4cn[nH]c4)CC3)n2)ccc1F	12.9
CC(C)N(C)CCn1cc(-c2ccc(F)c(C(F)(F)F)c2)nc1C1CCN(c2ncnc(N)c2C(N)=O)CC1	6.4
N#Cc1c(N)ncnc1N1CCC(c2nc(-c3ccc(F)c(C(F)(F)F)c3)cn2C2CNC2)CC1	6.4

With those in mind, consider the next compound.
// field: IC50; key: Nc1ncnc(N2CCC(c3nc(-c4ccnc(C(F)(F)F)c4)cn3CCN3CCC3)CC2)c1OCC(F)(F)F ; value = 9.7

====

biological target: His-AKT (Full Length) (Homo sapiens (Human)); experiment: AKT enzyme assay; type: biochemical; conditions: read-out: IC50 AKT
pIC50: −log10 of the molar value.
// label = criterion met if pIC50 is not less than 8, otherwise criterion not met

Answered examples (5):
Nc1ncnc(N2CCC(c3nc(-c4ccc(C(F)(F)F)c(F)c4)cn3CCN3CCCC3)CC2)c1C1CCC1 [Compound 258]	criterion not met
CCOc1c(N)ncnc1N1CCC(c2nc(-c3ccc(F)c(C(F)(F)F)c3)cn2CCN2CCC2)CC1	criterion met
C=Cc1c(N)ncnc1N1CCC(c2nc(-c3ccnc(C(C)C)c3)cn2CCN2CCC2)CC1	criterion met
CCc1c(N)ncnc1N1CCC(c2nc(-c3ccc(C(F)(F)F)c(F)c3)cn2CCN2CC[C@H](F)C2)CC1	criterion not met
N#Cc1c(N)ncnc1N1CCC(c2nc(-c3ccccc3F)cn2CCN2CCC2)CC1	criterion not met

Now take the following molecule into account.
For this molecule, is measured pIC50 8 or higher? C=Cc1c(N)ncnc1N1CCC(c2nc(-c3ccc(C(F)(F)F)c(F)c3)cn2CCN2CCCC2)CC1
criterion not met

====

molecular target: UniProt P31749; assay: AKT enzyme assay; format: biochemical; conditions: read-out: IC50 AKT
# Lookup of reported pIC50 keyed by entry
Keep in mind that pIC50 stands for -log10 of concentration in molar terms.

Past entries and their recorded results:
NC(=O)c1c(N)ncnc1N1CCC(c2nc(-c3cccc(F)c3)cn2CCN2CCCC2)CC1	6.21
CCc1c(N)ncnc1N1CCC(c2nc(-c3cccc(Cl)c3)cn2CCN2CCC2)CC1	7.80
Nc1ncnc(N2CCC(c3nc(-c4ccc(F)c(C(F)(F)F)c4)cn3CCN3CCC3)CC2)c1-c1ccc(F)cc1	8.64
Nc1ncnc(N2CCC(c3nc(-c4ccc(C(F)(F)F)cc4)cn3CCN3CCCC3)CC2)c1Br	6.96
COCCN(C)CCn1cc(-c2ccc(F)c(C(F)(F)F)c2)nc1C1CCN(c2ncnc(N)c2C(N)=O)CC1	6.36

The reported value for CC(C)CNCCn1cc(-c2ccc(F)c(C(F)(F)F)c2)nc1C1CCN(c2ncnc(N)c2C(N)=O)CC1 in terms of pIC50 is 7.92

Item: CCc1c(N)ncnc1N1CCC(c2nc(-c3cncc(C(F)(F)F)c3)cn2CCN2CCC2)CC1 | pIC50: 7.74

Entry Nc1ncnc(N2CCC(c3nc(-c4ccc(F)c(C(F)(F)F)c4)cn3CC3CNC3)CC2)c1Cl , pIC50 reported as 7.78

pIC50 measured on CCc1c(N)ncnc1N1CCC(c2nc(-c3ccc(C(F)(F)F)c(F)c3)cn2CCN2CCC(F)(F)CC2)CC1 = 6.28

# compound CCc1c(N)ncnc1N1CCC(c2nc(-c3ccc(F)c(C)c3)cn2CCN(CC)C(C)C)CC1 ; its pIC50 = 8.05
